# SYSTEM_TESTED: NHERF4_1, Q86UT5-2
# Sequence (Q86UT5 other isoform, or with tags, fused parts or gaps): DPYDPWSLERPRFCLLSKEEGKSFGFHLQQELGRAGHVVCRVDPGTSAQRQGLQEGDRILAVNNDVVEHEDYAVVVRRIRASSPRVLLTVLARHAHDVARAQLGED
# ASSAY_NAME: holdup assay
# Set-up: key: below the threshold = too weak to quantify, mostly under pKd 3.1 to 4
# TEST_CONDITIONS: plain residues with an end cap or a label only (N-terminal biotin on a linker: ado-ado)
PROPERTY_NAME: pKd

>>> df
                         binder          test_result
0      PYPTADHMLA [JUP, P14923]  below the threshold
1  PYSESDDDWC [CACNA1A, O00555]                 4.01
2  PSHPRLQTHV [KIRREL2, Q6UWL6]                 3.62
3    LESTTVGTSV [KARS1, Q15046]  below the threshold
4  RFQQRMQTHV [KIRREL1, Q96J84]                  3.7

Entry DPAESMESLV [PTPRG, P23470] — recorded pKd = below the threshold

Entry LAHVKHKEQI [AQP3, Q92482] — recorded pKd = below the threshold

Entry VKRNSKETVV [MARCHF3, Q86UD3] — recorded pKd = below the threshold

Entry SVTSERETNI [SLC16A7, O60669] — recorded pKd = below the threshold

Entry RSSGGDDFWF [KCNV1, Q6PIU1] — recorded pKd = below the threshold
